- target.desc: T1, IL-7 receptor (IL-7Rα/γc heterodimer) on primary human T cells (human, UniProt P16871 21-459; P31785 23-369)
- T1 sequence (looked up) 1: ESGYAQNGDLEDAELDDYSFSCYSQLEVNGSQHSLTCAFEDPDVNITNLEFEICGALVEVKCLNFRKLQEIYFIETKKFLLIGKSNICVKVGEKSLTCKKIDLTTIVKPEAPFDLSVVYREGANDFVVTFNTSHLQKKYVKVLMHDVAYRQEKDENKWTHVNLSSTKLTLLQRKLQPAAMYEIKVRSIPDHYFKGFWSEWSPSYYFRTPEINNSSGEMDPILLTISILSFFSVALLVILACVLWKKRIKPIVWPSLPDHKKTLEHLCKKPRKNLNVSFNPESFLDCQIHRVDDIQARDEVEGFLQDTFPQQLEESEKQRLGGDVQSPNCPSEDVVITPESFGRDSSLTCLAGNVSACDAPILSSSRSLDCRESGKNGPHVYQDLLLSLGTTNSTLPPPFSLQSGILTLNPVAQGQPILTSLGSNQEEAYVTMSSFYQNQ
- T1 sequence (looked up) 2: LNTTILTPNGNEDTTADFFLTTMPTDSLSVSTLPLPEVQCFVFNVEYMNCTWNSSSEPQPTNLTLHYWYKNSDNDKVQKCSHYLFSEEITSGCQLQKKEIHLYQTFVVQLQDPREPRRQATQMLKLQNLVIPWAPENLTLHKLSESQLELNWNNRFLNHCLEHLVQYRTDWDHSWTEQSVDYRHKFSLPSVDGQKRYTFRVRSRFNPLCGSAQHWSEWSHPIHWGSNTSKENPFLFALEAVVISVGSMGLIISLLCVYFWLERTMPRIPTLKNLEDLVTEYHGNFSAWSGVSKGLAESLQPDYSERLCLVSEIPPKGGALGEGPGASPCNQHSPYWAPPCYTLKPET
- assay.info: cell-based or functional assay
Bridges are numbered along the chain shown (N, C = ends). [ ]: non-standard residue; d: D form. glutaryl‑PEG9‑azide = glutaryl-PEG9-azide group on the N-terminal amine; hSer = N[C@@H](CCO)C(=O)O; Nle = CCCC[C@H](N)C(=O)O
metric: EC50 pSTAT5, CD4 Memory (pM)

>  <binder>
CMP-117, recombinant IL-7 Q11F with His-tag (ligand) DCDIEGKDGKFYESVLMVSIDQLLDSMKEIGSNCLNNEFNFFKRHICDANKEGMFLFRAARKLRQFLKMNSTGDFDLHLLKVSEGTTILLNCTGQVKGRKPAALGEAQPTKSLEENKSLKEQKKLNDLCFLKRLLQEIKTCWNKILMGTKEHVDHHHHHH

>  <recorded.measurement>
1

$$$$
>  <binder>
CMP-035, recombinant human native IL-7 with His-tag (ligand, also called WT IL-7 His; recombinant IL-7 (WT)) DCDIEGKDGKQYESVLMVSIDQLLDSMKEIGSNCLNNEFNFFKRHICDANKEGMFLFRAARKLRQFLKMNSTGDFDLHLLKVSEGTTILLNCTGQVKGRKPAALGEAQPTKSLEENKSLKEQKKLNDLCFLKRLLQEIKTCWNKILMGTKEHVDHHHHHH

>  <recorded.measurement>
1

$$$$
>  <binder>
CMP-114, CMP-108 conjugated to 30 kDa DBCO PEG at the N-terminus (ligand, disulfide 34-129, 47-141, 2-92; not fully specified (N-terminus); also: N-terminal azide conjugated to 30 kDa DBCO-PEG) DCDIEGKDGKQYESVL[Nle]VSIDQLLDS[Nle]KEIGSNCL[hSer]NEFNFFKRHICDANKEG[Nle]FLFRAARKLRQFLK[Nle]NSTGDF[hSer]LHLLKVSEGTTILLNCTGQVKGRKPAALGEAQPTKSL[hSer]ENKSLKEQKKLNDLCFLKRLLQEIKTCWNKIL[Nle]GTKEH-NH2

>  <recorded.measurement>
4

$$$$
>  <binder>
CMP-200, IL-7 syntein missing C2-C92 disulphide bond, N-terminus with glutaric acid and azido-PEG (ligand, disulfide 34-129, 47-141, also called CMP-200-001) {glutaryl‑PEG9‑azide}-DSDIEGKDGKQYESVL[Nle]VSIDQLLDS[Nle]KEIGSNCL[hSer]NEFNFFKRHICDANKEG[Nle]FLFRAARKLRQFLK[Nle]NSTGDF[hSer]LHLLKVSEGTTILLNSTGQVKGRKPAALGEAQPTKSL[hSer]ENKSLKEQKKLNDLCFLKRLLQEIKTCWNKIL[Nle]GTKEH-NH2

>  <recorded.measurement>
30

$$$$
>  <binder>
CMP-113, synthetic IL-7 C2A, C92A of SEQ ID NO: 10 with glutaryl-PEG9-azide at the N-terminus (ligand, ends and bridges not checked) {glutaryl‑PEG9‑azide}-DADIEGKDGKQYESVL[Nle]VSIDQLLDS[Nle]KEIGSNCL[hSer]NEFNFFKRHICDANKEG[Nle]FLFRAARKLRQFLK[Nle]NSTGDF[hSer]LHLLKVSEGTTILLNATGQVKGRKPAALGEAQPTKSL[hSer]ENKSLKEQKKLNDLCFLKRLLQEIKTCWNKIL[Nle]GTKEH

>  <recorded.measurement>
40

$$$$
